FYI, the data here is from patent EP2769723A1.

# target: CA (Human immunodeficiency virus type 1 group M subtype B, UniProt P12493)
# Construct: a fusion protein of CA with glutathione-S-transferase (CA-GST)
# method summary: ALPHA screen (AlphaScreen): inhibition of CAI binding to CA
# Parameters: species or system HIV-1
# assay setup: CAI-biotin peptide / CA-GST; compounds screened at 0.5-100 µM; read-out: α screen IC50
The following compounds are shown together with reported pIC50 values.
Scale for pIC50: -log10 of concentration given in mol/L; no unit attached.

Worked examples, 4 compounds total:
O=[N+]([O-])c1ccc(F)c(Nc2nc(-c3ccncc3)nc3ccccc23)c1 [AMR.348]    5.14
Cc1ccnc(Nc2nc(-c3ccncc3)nc3ccccc23)c1 [AMR.355]    4.60
O=[N+]([O-])c1cc(Nc2nc(-c3ccncc3)nc3ccccc23)ccc1O [AMR.458]    5.24
Fc1ccc(Cl)cc1Nc1nc(-c2cccnc2)nc2ccccc12 [AMR.427]    4.78

The record that follows has no pIC50 shown yet.
Prompt: For the compound O=[N+]([O-])c1ccc(-c2nc(Nc3cc([N+](=O)[O-])ccc3F)c3ccccc3n2)cc1 [AMR.428] , what pIC50 is on record?
Response: 3.94

----------
# target: CA (Human immunodeficiency virus type 1 group M subtype B, UniProt P12493)
# Construct: a fusion protein of CA with glutathione-S-transferase (CA-GST)
# method summary: ALPHA screen (AlphaScreen): inhibition of CAI binding to CA
# Set-up: species or system HIV-1
# assay setup: CAI-biotin peptide / CA-GST; compounds screened at 0.5-100 µM; read-out: α screen IC50
quantity: IC50 (µM)
Provide the reading as a plain figure in µM.

Worked examples, 3 compounds total:
c1ccc(-c2nc(Nc3ccc4[nH]nnc4c3)c3ccccc3n2)nc1    3.2
Cn1nnc2cc(Nc3nc(-c4ccc(Cl)cc4Cl)nc4ccccc34)ccc21    41.8
Cn1nnc2cc(Nc3nc(-c4ccc(Cl)cc4)nc4ccccc34)ccc21    6.6

Prompt: For the compound "O=[N+]([O-])c1ccc(F)c(Nc2nc(-c3cccnc3)nc3ccccc23)c1" , what IC50 is on record?
Response: 6.5

Prompt: Another compound: "CN(C)c1cccc(Nc2nc(-c3ccc(Cl)cc3)nc3ccccc23)c1"
Response: 157

----------
# target: HIV capsid protein (Human immunodeficiency virus type 1 group M subtype B)
# method summary: Isothermal titration calorimetry (ITC), whole capsid protein
# Type: binding
# assay setup: dissociation constant, one ligand binds to monomer of HIV capsid protein; 25 °C, pH 6.0
quantity: Kd (nM)
Provide the reading as a plain figure in nM.

Prompt: For the molecule "CCOC(=O)c1ccc(Nc2nc(-c3ccncc3)nc3ccccc23)cc1" , what Kd is on record?
Response: 230

----------
# System: TZM cells
# method summary: in vitro
# Assay type: cell-based
# assay setup: Table 4; non-cytotoxic when values higher than 80 % of 1 % DMSO treated cells
quantity: toxicity LC50 (µM)

Fc1cc(Nc2nc(N3CCOCC3)nc3ccccc23)cc(F)c1F    non-toxic
Fc1cc(F)c(Nc2nc(-c3cccnc3)nc3ccccc23)cc1F    non-toxic
Fc1cc(Nc2nc(Nc3cc(F)c(F)c(F)c3)c3ccccc3n2)cc(F)c1F    non-toxic
Cc1ccc(Nc2nc(-c3cccnc3)nc3ccccc23)cc1C(F)(F)F    non-toxic
c1cncc(-c2nc(NC3CC3)c3ccccc3n2)c1    non-toxic
Fc1cc(Nc2nc(-c3cccnc3)nc3ccccc23)c(F)c(F)c1F    non-toxic
O=[N+]([O-])c1cc(Nc2nc(-c3cccnc3)nc3ccccc23)ccc1F    non toxic
COc1ccc(Nc2nc(-c3cccnc3)nc3ccccc23)cn1    non-toxic
CCOC(=O)c1cccc(Nc2nc(-c3ccncc3)nc3ccccc23)c1    non-toxic
Oc1ccc2nc(-c3cccnc3)nc(Nc3cc(F)c(F)c(F)c3)c2c1    non-toxic

Prompt: For the molecule "Fc1cc(Nc2nc(-c3ccccc3)nc3ccccc23)cc(F)c1F" , what toxicity LC50 (µM) is on record?
Response: non-toxic

Prompt: Another molecule: C[S+]([O-])c1ccc(Nc2nc(-c3ccncc3)nc3ccccc23)cc1 (stereo not shown)
Response: non-toxic

Prompt: Another molecule: "O=S(=O)(c1ccc(Nc2nc(-c3cccnc3)nc3ccccc23)cc1)c1nccs1"
Response: non-toxic

Prompt: Another molecule: "CCN(CC)c1nc(-c2cccnc2)nc2ccccc12"
Response: non-toxic

Prompt: Another molecule: "Fc1cc(F)c(Nc2nc(-c3cccnc3)nc3ccccc23)cc1Br"
Response: non-toxic

Prompt: Another molecule: "c1cncc(-c2nc(Nc3ccncn3)c3ccccc3n2)c1"
Response: non-toxic
